Taken from ChEMBL document CHEMBL4630905.

Biological target: Bromodomain and PHD finger-containing protein 3 (Homo sapiens)
Sequence (Q9ULD4 whole entry): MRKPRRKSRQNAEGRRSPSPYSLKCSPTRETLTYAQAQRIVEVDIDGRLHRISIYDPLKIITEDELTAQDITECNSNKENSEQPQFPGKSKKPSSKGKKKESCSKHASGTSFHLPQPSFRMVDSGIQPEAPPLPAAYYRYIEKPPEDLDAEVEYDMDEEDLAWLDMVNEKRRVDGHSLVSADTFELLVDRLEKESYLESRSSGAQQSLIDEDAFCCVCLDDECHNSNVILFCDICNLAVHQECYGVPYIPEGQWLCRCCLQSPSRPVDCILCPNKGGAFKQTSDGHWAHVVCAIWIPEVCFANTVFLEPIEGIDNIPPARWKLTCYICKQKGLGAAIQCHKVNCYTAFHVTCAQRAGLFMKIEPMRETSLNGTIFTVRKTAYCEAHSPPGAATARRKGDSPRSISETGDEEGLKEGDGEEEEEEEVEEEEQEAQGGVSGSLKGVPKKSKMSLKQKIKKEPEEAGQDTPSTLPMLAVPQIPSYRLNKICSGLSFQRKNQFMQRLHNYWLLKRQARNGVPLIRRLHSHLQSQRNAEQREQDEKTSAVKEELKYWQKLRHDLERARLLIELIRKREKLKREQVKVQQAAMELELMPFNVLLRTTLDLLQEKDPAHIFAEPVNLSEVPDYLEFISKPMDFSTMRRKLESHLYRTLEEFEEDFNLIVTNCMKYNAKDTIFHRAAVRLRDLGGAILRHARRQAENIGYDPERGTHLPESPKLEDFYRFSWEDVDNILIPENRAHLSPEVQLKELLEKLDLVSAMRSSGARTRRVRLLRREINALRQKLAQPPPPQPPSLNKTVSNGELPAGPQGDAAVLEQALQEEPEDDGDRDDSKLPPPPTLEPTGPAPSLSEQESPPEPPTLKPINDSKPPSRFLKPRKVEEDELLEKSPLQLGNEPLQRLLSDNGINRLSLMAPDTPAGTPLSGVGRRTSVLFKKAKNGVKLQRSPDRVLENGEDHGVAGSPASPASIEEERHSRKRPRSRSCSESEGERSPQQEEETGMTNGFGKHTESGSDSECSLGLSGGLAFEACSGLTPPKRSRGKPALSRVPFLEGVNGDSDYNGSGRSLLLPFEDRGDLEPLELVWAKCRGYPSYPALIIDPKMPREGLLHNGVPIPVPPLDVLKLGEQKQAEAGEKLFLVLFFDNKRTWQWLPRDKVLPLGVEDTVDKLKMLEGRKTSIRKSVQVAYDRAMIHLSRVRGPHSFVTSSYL
Experiment: BRPF3 DiscoverX BROMOscan
VALUE_TYPE: pKd
Please note pKd is a logarithmic value: minus log10 of concentration in mol/L. Answer with that number alone.

[in] Query (molecule): `Cc1cc2c(-c3ccco3)cnc(N[C@@H]3CCN(C)C[C@H]3C(=O)NC3CCCCC3)c2[nH]c1=O` ; field requested: pKd
[out] 4.50
